System: HCT-15
Assay Protocol: NCI tumour cell line growth inhibition, 48 h
Provide the reported GI50 of each item.
Answers are plain numbers, in µM.

For the 4 compounds below, give their GI50 values.
1. Cc1cc(C)c2c(O)cc(-c3cccc(Cl)c3)nc2n1
2. Nc1ncnc2c1ncn2C1C=CC(COS(N)(=O)=O)C1 (stereo unspecified)
3. O=c1oc2ccc([N+](=O)[O-])cc2c(Nc2ccc3c(c2)Oc2ccccc2O3)c1[N+](=O)[O-]
4. CN(C)CCOc1cc2c(c3ccccc13)-c1ccccc1C2O (stereo unspecified)

Reply:
1. 0.101
2. 9.27
3. 31.1
4. 12.4

* * *

System: HT-29
Assay Protocol: NCI tumour cell line growth inhibition, 48 h
Activity calls are given as the source filed them. Cut-off read from the data, not from the text of the source: active = GI50 up to about 1.1 µM and inactive = higher.
Recorded Metric: GI50

# annotated cases, reported GI50 shown
COc1cc(/C=N/N=C(\N)NO)cc(Cl)c1O ... > 100 µM (inactive)
CCN(CC)C(=O)c1cccc2c(OC)ccc(OC)c12 ... > 100 µM (inactive)
O=C1CCCC/C1=C1/SC(=N/c2ccccc2)/C(=N\c2ccccc2)N1c1ccccc1 ... > 100 µM (inactive)
Cc1cc(-c2nc3c(F)cccc3s2)ccc1N ... 44.8 µM (inactive)
O=C(O)CCc1nc(-c2ccccc2)c(-c2ccccc2)o1 [OXAPROZIN] ... > 100 µM (inactive)

For the 5 compounds below, give their GI50 values.
1. CCc1n[nH]c(=O)n1/N=C/c1ccccc1Cl
2. O=C(O)c1cc2c(s1)C(=O)c1sccc1C2=O
3. CC1(C)C(=NNC(=S)NN)C(C)(C)C1=NNC(=S)NN
4. CC(C)(CN1CCCCC1)C(=O)CC(SCCS(=O)(=O)O)c1ccc(Cl)c(Cl)c1 (configuration not stated)
5. Nc1ccc(C(=O)/C=C/c2ccccc2O)cc1

Reply:
["> 100 µM (inactive)", "5.64 µM (inactive)", "> 100 µM (inactive)", "3.08 µM (inactive)", "> 100 µM (inactive)"]

For the 2 compounds below, give their GI50 values.
1. Cc1nnc2n1-c1ccccc1-c1[nH]c3ccccc3c1C2
2. NC(=O)C12C3C4C1C1C2C3C41C(N)=O (configuration not stated)

Reply:
68.2 µM (inactive)
> 100 µM (inactive)

For the 2 compounds below, give their GI50 values.
1. c1cc2cc3c4c5c(cc6ccc7cc8cc9c%10c8c8c7c6c5c8c5c%10c(c1C9N1CCOCCOCCOCCOCCOCC1)c2c45)C3 (configuration not stated)
2. O=C1/C(=C/c2cccc([N+](=O)[O-])c2)N=C(c2ccccc2)N1c1nc2c(Cl)cc(Cl)cc2s1

Reply:
1. > 100 µM (inactive)
2. 19.1 µM (inactive)

* * *

Tested on: NCI-H522
Assay Protocol: NCI tumour cell line growth inhibition, 48 h
Active and inactive are the calls of the source. Rule as the data show it: active = GI50 up to about 1.1 µM and inactive = higher.
Recorded Metric: GI50

# annotated cases, reported GI50 shown
COC(=O)CN(C)P(=O)(N1CC1)N1CC1 ... > 100 µM (inactive)
Cc1ccc(-c2nc3cc(F)c(N4CCN(C)CC4)cc3[nH]2)cc1 ... 14.5 µM (inactive)

For the 7 compounds below, give their GI50 values.
1. CN(CCO)c1nc2c(c(=O)[nH]1)CNCC2
2. O=C(O)CCc1nc(-c2ccccc2)c(-c2ccccc2)o1
3. CS(=O)(=O)CCC1CCC(=O)O1 (centres undefined)
4. C#CC1(O)CCCCCCCCC2(CCCCCCCC1)OCCO2
5. CCNC(=O)c1cc(Cl)ccc1NC(=O)C12CC3CC(CC(C3)C1)C2
6. O=C(COC(=O)c1ccccc1)c1ccc(Br)cc1
7. Nc1nc2ccc3ccccc3c2[nH]1

Reply:
> 100 µM (inactive)
> 100 µM (inactive)
31.2 µM (inactive)
2.56 µM (inactive)
75.5 µM (inactive)
1.63 µM (inactive)
> 10 µM (inactive)

For the 2 compounds below, give their GI50 values.
1. N#C/C(=C\c1cn(Cc2ccccc2)c2ccccc12)c1nn(-c2ccccc2)c(N)c1C#N
2. COc1cc(-c2cc(=O)c3c(OC)c(OC)c(OC)c(OC)c3o2)c(OC)c(OC)c1OC

Reply:
13.2 µM (inactive)
20.7 µM (inactive)

* * *

Test system: MOLT-4
Assay Protocol: NCI tumour cell line growth inhibition, 48 h
Active and inactive are the calls of the source. No stated cut-off is given here; in the data, active = GI50 up to about 1.1 µM and inactive = higher.
Recorded Metric: GI50

# annotated cases, reported GI50 shown
CN1c2ccc(O)c(O)c2-c2cc(O)cc3c2C1CCC3 (stereo not given) ... 7.4 µM (inactive)
Cc1cc2c(c(C(=O)O)c1C)-c1cccc(F)c1C2=O ... > 100 µM (inactive)
CCNC(=O)c1cc(Cl)ccc1NC(=O)C12CC3CC(CC(C3)C1)C2 ... 34.8 µM (inactive)
O=C(n1c(=O)n(-c2ccc(Cl)cc2)c(=O)n1C(=O)C(Cl)(Cl)Cl)C(Cl)(Cl)Cl ... > 100 µM (inactive)

Task item: Given the entry `CN(C)CC/[N+]([O-])=C(/c1ccccc1)C12CC3CC(CC(C3)C1)C2` , report its measured GI50.
Reply: 16.7 µM (inactive)

* * *

Test system: HL-60
Assay Protocol: NCI tumour cell line growth inhibition, 48 h
Calls of active or inactive are those of the source. Cut-off read from the data, not from the text of the source: active = GI50 up to about 1.1 µM and inactive = higher.
Hello, when you answer, please use one of the following outcomes: active, inactive

Answered examples (5):
COc1ccc2cc(CNCCCN3CCN(CCCNCc4ccc5cc(OC)ccc5c4)CC3)ccc2c1 ... active
CN(/C(=N\O)c1ccccc1)c1ccccc1 ... inactive
CC#CC(OCC)(OCC)OCC ... inactive
Cc1cc(O)nc(NNC(C#N)c2ccc(N(C)C)cc2)n1 (stereo unspecified) ... inactive
O=C(CCCn1cnc([N+](=O)[O-])n1)NCCn1ccnc1[N+](=O)[O-] ... inactive

Task item: // param item: `COc1ccc2c(O)c3[n+](cc2c1OC)CCc1cc2c(cc1-3)OCO2` ; yields the recorded call
Reply: inactive

* * *

Provide the reported GI50 of each item.
Tested on: OVCAR-3
Assay Protocol: NCI tumour cell line growth inhibition, 48 h
Calls of active or inactive are those of the source. Cut-off read from the data, not from the text of the source: active = GI50 up to about 1.1 µM and inactive = higher.

# annotated cases, reported GI50 shown
O=C(n1c(=O)n(-c2ccc(Cl)cc2)c(=O)n1C(=O)C(Cl)(Cl)Cl)C(Cl)(Cl)Cl ... > 100 µM (inactive)
COC(=O)C1=COc2c(n(C)c3ccccc23)-c2ccccc21 ... > 100 µM (inactive)

For the 2 molecules below, give their GI50 values.
1. CN(C)CC/[N+]([O-])=C(/c1ccccc1)C12CC3CC(CC(C3)C1)C2
2. Nc1ccc2nc(NCc3ccc(F)cc3)cnc2c1

Reply:
1. 14.7 µM (inactive)
2. > 100 µM (inactive)

* * *

Test system: UACC-257
Assay Protocol: NCI tumour cell line growth inhibition, 48 h
Active and inactive are the calls of the source. No stated cut-off is given here; in the data, active = GI50 up to about 1.1 µM and inactive = higher.
Recorded Metric: GI50

CC(C)(C)OC(=O)N[C@H]1CC2(C=C(Cl)C(=O)C(Cl)=C2)OC1=O ... 13.8 µM (inactive)
c1ccc2c(c1)c1c(n2CCOCCN2CCOCC2)CCCC1 ... 21.1 µM (inactive)
Cc1cccc(Nc2cnc(N)nc2N)c1 ... > 100 µM (inactive)
COc1cccc(C2N3CCCCC3[C@@H]3c4[nH]c5ccccc5c4CCN23)c1OC (stereo partly specified) ... 15.9 µM (inactive)
CN(C)CC/[N+]([O-])=C(/c1ccccc1)C12CC3CC(CC(C3)C1)C2 ... 15.9 µM (inactive)

Shift focus to the following entry.
Task item: Given the entry CC(C)(C)OC(=O)NC(CS(=O)(=O)O)C(=O)O (stereo unspecified) , report its measured GI50.
Reply: > 100 µM (inactive)

* * *

Provide the reported GI50 of each item.
Test system: SK-MEL-28
Assay Protocol: NCI tumour cell line growth inhibition, 48 h
Active and inactive are the calls of the source. No stated cut-off is given here; in the data, active = GI50 up to about 1.1 µM and inactive = higher.

COc1cccc(C2c3cc4c(cc3OC(NNS(=O)(=O)c3ccc(C)cc3)C2C)OCO4)c1O (centres undefined) ... 25.5 µM (inactive)
S=C(/N=c1\sc(NCc2ccccc2)nc2sc3c(c12)CCN(N1CCc2c(sc4nc(NCc5ccccc5)s/c(=N\C(=S)NCc5ccccc5)c24)C1)C3)NCc1ccccc1 ... 63.4 µM (inactive)
CCOC(=O)NC(=O)c1cn(C2OC(CO)C(O)C2O)c(=O)[nH]c1=O (centres undefined) ... > 100 µM (inactive)

For the 6 molecules below, give their GI50 values.
1. CN(C)CC/[N+]([O-])=C(/c1ccccc1)C12CC3CC(CC(C3)C1)C2
2. Cc1n[nH]c(=O)n1/N=C/c1cccnc1
3. Nc1ccc(C(=O)NN2C(=O)C(Cl)C2c2cccc(O)c2)cc1 (centres undefined)
4. COc1cc(OC)c(C2c3cc4c(cc3OC(N3CCCC3)C2C)OCO4)c(OC)c1 (centres undefined)
5. Cn1c(=S)c2nc(SCc3cccnc3)[nH]c2n(C)c1=O
6. C=C1C(=O)O[C@@H]2O[C@@]3(C)CC[C@H]4[C@H](C)CC[C@@H]1[C@@]24O3

Reply:
1. 16.2 µM (inactive)
2. > 100 µM (inactive)
3. 16.9 µM (inactive)
4. 18.4 µM (inactive)
5. > 100 µM (inactive)
6. 40.6 µM (inactive)
